Assay: MTT cytotoxicity assay in HEK-293 cells
Assay type: cell-based
Details: human, one day treatment
measure_name: IC50 at 1 day

compound="CC(/C=C/C=C(\\C)C(=O)O[C@@H]1O[C@H](CO[C@@H]2O[C@H](CO)[C@@H](O)[C@H](O)[C@H]2O)[C@@H](O)[C@H](O)[C@H]1O)=C\\C=C\\C=C(C)\\C=C\\C=C(/C)C(=O)O[C@@H]1O[C@H](CO[C@@H]2O[C@H](CO)[C@@H](O)[C@H](O)[C@H]2O)[C@@H](O)[C@H](O)[C@H]1O [crocin]" recorded_value="> 1000 µM"
compound="COC(=O)C1=CO[C@@H](O[C@@H]2O[C@H](CO)[C@@H](O)[C@H](O)[C@H]2O)[C@@H]2C(CO)=CC[C@H]12 [geniposide]" recorded_value="> 1000 µM"
compound="COC(=O)C1=CO[C@@H](O)[C@@H]2C(CO)=CC[C@H]12 [genipin]" recorded_value="580 µM"
